From: PubChem BioAssay (NCI)

assay_name: NCI Yeast Anticancer Drug Screen. Data for the mlh1 rad18 strain (AID 175)
condition_context: S. cerevisiae mlh1 rad18 strain growth inhibition; at 50.0 µM (retest, dose inferred, filed as 5.0); hits give high values
Method: Growth inhibition of yeast strains with defined genetic alterations is measured as a screen for potential anti-cancer activity. Selected strains with alterations in DNA damage repair or cell cycle control were exposed to compounds and growth inhibition was measured relative to vehicle treated controls. The strain used in this assay is mlh1 rad18
About 79,000 compounds went through this panel and 15% of them were active in at least one assay; those are over-represented in the sample as a whole. The source made the active and inactive calls. Cut-off read from the data, not from the text of the source: active = growth inhibition above about 70%; inactive = the rest.
measured_attribute: growth inhibition

{"columns": ["compound", "result"],
 "data": [
  ["COC(=O)C1=C(/C=C/C(C)=O)NC(C)=C(C(=O)OC(C)C)C1c1ccccc1Cl (stereo unspecified)", "95% (active)"],
  ["CCOC(=O)c1cc(C)c(O)c(C(=O)OCC)c1", "-9% (inactive)"],
  ["Oc1[nH]c2ccccc2c1N=NC(=S)N1CCCC1", "68% (inactive)"],
  ["Cc1cc(C)c(N2C(=O)C=CC2=O)c(C)c1", "98% (active)"]
]}

Reported growth inhibition for CC(=O)OCC1OC(Sc2ccc3ccccc3c2)C(OC(C)=O)C(OC(C)=O)C1OC(C)=O (stereo unspecified) : what is it?
-2% (inactive)

// next record COC(=O)c1c2c(cc3c1CC1(Cc4cc5c(c(C)c4C1)CCC5)C3)CCC2 (stereo unspecified)
11% (inactive)

// next record CCn1cnc2[nH]cc(C#N)c2c1=O
-86% (inactive)

// next record COc1ccc(/C=C2\CCC/C(=C\c3ccc(OC)cc3)C2=O)cc1
-14% (inactive)

// next record CCN(CC)c1c(C(=O)/C=C/c2ccc(OC)cc2)c(-c2ccccc2)nn(C)c1=O
8% (inactive)

// next record C1=CC2OC1c1cc3ccccc3cc12
97% (active)

// next record NC(=Nc1ccccc1)c1ccc2c(c1)c1c(n2Cc2ccccc2)CCCC1
99% (active)

// next record Clc1ccc(SSN2CCCCC2)cc1
84% (active)
